Test system: mice
Condition Label: mouse, in vivo, po
Assay Metric: Toxic symptoms

{"columns": ["Compound", "Assay Metric", "Observed Result"],
 "data": [
  ["CCCCCCCCCCCCCCCCCCCCCC(=O)OCCCCOC(=O)CCCCCCCCCCCCCCCCCCCCC [Compound 7, 1,4-butanediol dibehenate]", "Toxic symptoms", "none"],
  ["CCCCCCCCCCCCCCCCCCCCCC(=O)OCC(COC(=O)CCCCCCCCCCCCCCCCCCCCC)(COC(=O)CCCCCCCCCCCCCCCCCCCCC)COC(=O)CCCCCCCCCCCCCCCCCCCCC [Compound 9, Pentaerythrite tetrabehenate]", "Toxic symptoms", "none"],
  ["CCCCCCCCCCCCCCCCCCCCCC(=O)OCC(COC(=O)CCCCCCCCCCCCCCCCCCCCC)OC(=O)CCCCCCCCCCCCCCCCCCCCC [Compound 8, Glyceryl tribehenate]", "Toxic symptoms", "none"],
  ["CCCCCCCCCCCCCCCCCCCCCC(=O)OCCOCCOCCOC(=O)CCCCCCCCCCCCCCCCCCCCC [Compound 4, Triethyleneglycol dibehenate]", "Toxic symptoms", "none"],
  ["CCCCCCCCCCCCCCCCCCCCCC(=O)O [calcium behenate]", "Toxic symptoms", "none"]
]}

Continue with the compound presented below.
Query: Name the reported Toxic symptoms value associated with the compound CCCCCCCCCCCCCCCCCCCCCC(=O)OCC(C)OC(=O)CCCCCCCCCCCCCCCCCCCCC (stereo not drawn) [Compound 1, 1,2-propanediol dibehenate]
Reply: none
